normalized growth values, listed per item
- assay: chemical genetic growth profiling, strain panel (AID 1159580);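 note: tested at 20 µM; growth read once vehicle control cultures reached saturation at 30 °C; 1 = growth at the plate median or of vehicle wells; lower values mean less growth of the strain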
- applied_conditions: S. cerevisiae deletion strains, growth OD, locus YLL026W, active compounds read low
Out of some 5,500 compounds screened, about 2,000 (36%) were called active. Roughly 18% stayed inconclusive and do not appear here. The list shows a part of the results. Where a SMILES comes first, the peptide text is derived from it. Bridges are numbered along the chain shown (N, C = ends). [ ]: non-standard residue; d: D form. The star is where a group is joined. ξ: configuration not given here. ξDab(CH2SO3H) = NC(CCNCS(=O)(=O)O)C(=O)O; Heptanoyl(6-Me) = CC(C)CCCCC(=O)*; Dab = NCC[CH](N)C(=O)O

| molecule | normalized growth |
| --- | --- |
| Cc1cn([C@H]2C[C@H](N=[N+]=[N-])[C@@H](CO)O2)c(=O)[nH]c1=O | 0.996 |
| NC(Cc1c[nH]c2ccccc12)C(=O)O (stereo not drawn) | 1.02 |
| CC1(C)CC[C@]2(C(=O)O)CC[C@]3(C)C(=CCC4[C@@]5(C)CC[C@@H](O)C(C)(C)C5CC[C@]43C)C2C1 (stereo partly drawn) | 1.02 |
| Cc1ccc(N=CN(C)C=Nc2ccc(C)cc2C)c(C)c1 | 0.996 |
| CC(C)(C#N)O[C@@H]1O[C@H](CO)[C@@H](O)[C@H](O)[C@H]1O | 0.99 |
| COc1ccc2c3c([nH]c2c1)C(C)=NCC3 | 0.987 |
| N=C(N)c1ccc(OCCCCCOc2ccc(C(=N)N)cc2)cc1 | 0.97 |
| CCC(C)C(=O)O[C@H]1[C@H](O)C2C(CN3CC(C)CCC3[C@@]2(C)O)C2C[C@]34O[C@]5(O)C(OC(=O)C(C)(O)CC)CC[C@@]3(C)C5C(OC(C)=O)[C@@H](OC(C)=O)C4[C@@]21O (stereo partly drawn) | 1.01 |
| O=C1C(O)=C(O)C(=O)C(O)=C1O | 1.02 |
| OC(CCN1CCCCC1)(c1ccccc1)C1CCCCC1 (stereo not drawn) | 0.981 |
| COc1cccc2c1C(=O)c1c(O)c3c(c(O)c1C2=O)C[C@@](O)(C(=O)CO)C[C@@H]3OC1C[C@H](N)[C@H](O)[C@H](C)O1 (stereo partly drawn) | 0.623 |
| COc1c(-c2coc3cc4c(cc3c2=O)CC(OC(C)=O)C(C)(C)O4)ccc2c1C=CC(C)(C)O2 (stereo not drawn) | 1.02 |
| COc1ccc2[nH]cc(CCN)c2c1 | 0.997 |
| C#C[C@]1(O)CCC2C3CCC4=C(CCC(=O)C4)C3CC[C@@]21C (stereo partly drawn) | 0.994 |
| COC(=O)Nc1nc2ccc(C(=O)c3ccccc3)cc2[nH]1 | 0.973 |
| CCC(C)C1NC(=O)C(CCNCS(=O)(=O)O)NC(=O)C(NC(=O)C(CCNCS(=O)(=O)O)NC(=O)C(NC(=O)C(CCNCS(=O)(=O)O)NC(=O)CCCCC(C)C)C(C)O)CCNC(=O)C(C(C)O)NC(=O)C(CCNCS(=O)(=O)O)NC(=O)C(CCNCS(=O)(=O)O)NC(=O)C(C(C)CC)NC1=O (stereo not drawn) ({Heptanoyl(6-Me)}-[ξDab(CH2SO3H)]T[ξDab(CH2SO3H)][Dab][ξDab(CH2SO3H)]II[ξDab(CH2SO3H)][ξDab(CH2SO3H)]T; lactam 4-C; configuration not given here) | 0.997 |
| Nc1c2c(nc3ccccc13)CCCC2 | 0.99 |
| OC(CCN1CCCC1)(c1ccccc1)C1CCCCC1 (stereo not drawn) | 0.974 |
| CCC(C)C(NC)C(=O)O (stereo not drawn) | 1.01 |
| Cc1ccc(-c2cc(C(F)(F)F)nn2-c2ccc(S(N)(=O)=O)cc2)cc1 | 1.02 |
| N=C(N)SCCN | 0.999 |
| Nc1c2ccccc2nc2ccccc12 | 0.555 |
| CC(C)CC(N(C)C)C1(c2ccc(Cl)cc2)CCC1 (stereo not drawn) | 1.01 |
